- testName: Selectivity index, ratio of IC50 for HEK293T cells to MIC for Mycobacterium tuberculosis H37Rv
- Format: toxicity, cell-based, HEK-293T
- particulars: human, read-out: Selectivity Index
The compounds listed here are annotated with their selectivity ratio.
Just the number, please, no unit attached.

Here is how some compounds turned out for selectivity ratio.
O=C(N/N=C/C1=Cc2ccccc2OC1c1ccccc1)c1ccco1 (stereo not drawn) : 79.4
CC1Oc2ccccc2C=C1/C=N/NC(=O)c1ccncc1 (stereo not drawn) : 449
Cc1nnsc1C(=O)N/N=C/C1=Cc2ccccc2OC1c1ccccc1 (stereo not drawn) : 56.9
COc1ccc(C(=O)N/N=C/C2=Cc3ccccc3OC2c2ccccc2)cc1 (stereo not drawn) : 697
CC1Oc2ccccc2C=C1/C=N/NC(=O)c1ccc(O)cc1 (stereo not drawn) : 76.2

Consider the compound O=C(N/N=C/C1=Cc2ccccc2OC1)c1ccco1 and give its measured selectivity ratio.
63.9

Given the compound CC1Oc2ccccc2C=C1/C=N/NC(=O)c1ccco1 (stereo not drawn) , what is its reported selectivity ratio?
118

Item under review: Cc1nnsc1C(=O)N/N=C/c1c(Cl)c2ccccc2oc1=O . Reported selectivity ratio?
45
